Reference source for all entries: ChEMBL document CHEMBL1201862

Tested on: BT-549
METHOD_NOTES: NCI tumour cell line growth inhibition, 48 h
The source made the active and inactive calls. Rule as the data show it: active = GI50 up to about 1.1 µM and inactive = higher.
ENDPOINT: GI50

Requested field: GI50. Item: CN1C(=O)C2C=C3CCCCC3=CC2N(C)C1=O (stereo not given)
> 100 µM (inactive)

Please do the same for "COc1c2cc([N+](=O)[O-])cc1CNC(=O)CN1CCOCCOCCN(CCOCCOCC1)CC(=O)NC2" as well.
> 100 µM (inactive)

Please do the same for "O=c1[nH]c(=S)c2cc3c(=S)[nH]c(=O)n(CCC(c4ccccc4)(c4ccccc4)c4ccccc4)c3nc2n1CCC(c1ccccc1)(c1ccccc1)c1ccccc1" as well.
> 100 µM (inactive)

Please do the same for "O=[N+]([O-])c1cc(Cl)ccc1Sc1ccccc1" as well.
81.5 µM (inactive)

Please do the same for COC(=O)C1(c2cc3ccccc3n2S(=O)(=O)c2ccccc2)CC2C=CC1NC2 (stereo not given) as well.
2.36 µM (inactive)
